Attribute: %Inh
System: BMPR2;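 note: KINOMEscan kinase panel screen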
Condition Summary: concentration: 1 μM, replicates: in singlicate; n = 1
Measure: %Inh (%)

>>> print(df.to_string())
                                    compound  recorded_value
 0  CC(C)c1nc(-c2cccc(NS(=O)(=O)c3c(F)cccc3F)c2F)c(-c2ccnc(Nc3ccc(N4CCOCC4)nc3)n2)s1               0
 1  Cl.Cl.NCC(NC(=O)c1cc(-c2ccccc2)c(-c2ccnc3[nH]ccc23)s1)c1ccccc1 (centres unmarked)               0
 2  FC(F)(F)c1ccc(/C=C/c2cncnc2Nc2ccc3[nH]c(Cc4ccccc4)nc3c2)cc1               0
 3  C[C@@H](Oc1cc(-n2cnc3cc(-c4ccnc(NCCS(C)(=O)=O)c4)ccc32)sc1C(N)=O)c1ccccc1Cl               0
 4  Cc1cccc(Nc2nc(N[C@H]3CCNC3)ncc2C(N)=O)c1.Cl               0
 5  O=c1[nH]cc(-c2ccc(N3CCOCC3)cc2)c2sc(-c3cn[nH]c3)cc12              24
 6  Cc1ccc(S(=O)(=O)Nc2ccc(Nc3nccc(Nc4cccc5[nH]ncc45)n3)cc2)cc1               4
 7  Cl.Cl.NCC(NCc1ccc(-c2ccnc3[nH]ccc23)s1)c1ccccc1 (centres unmarked)               3
 8  Cc1cccc(NC(=O)Nc2ccc(Oc3ncnc4ccn(C)c34)cc2)c1               0
 9  Clc1ccc(-c2nn3ncccc3c2-c2ccnc(Nc3ccc4c(c3)OCCO4)n2)cc1               0
10  Cc1ccc(C)c(NC(=O)NC2CCN(c3ccnc(Nc4ccc(F)cc4)n3)C2)c1 (centres unmarked)              21
11  Cn1cc(-c2[nH]c3cc(NC(=O)[C@H](N)C4CCCCC4)cc4c3c2C=NNC4=O)cn1              22
12  COc1cccc(C2=C(Nc3ccc(Cl)c(C(=O)O)c3)C(=O)NC2=O)c1             100
13      CC(C)(C)c1ccc2nccc(Nc3cccc(O)c3)c2c1              38
14  CCn1c(-c2nonc2N)nc2c(C#CC(C)(C)O)nc(OC[C@H](N)c3ccccc3)cc21               1
15  O=C(Nc1ccccc1F)NC1CCN(c2ccnc(Nc3ccc(F)cc3)n2)CC1              12
16  CCS(=O)(=O)c1ccc(OC)c(Nc2nccc(-c3c(-c4cccc(NC(=O)c5c(F)cccc5F)c4)nn4ncccc34)n2)c1               4
17  COc1ccc(Nc2nccc(NCCNC(=O)c3cc4ccccc4s3)n2)cc1               0
18            Oc1cc(Nc2ccnc3cc(I)ccc23)ccc1F               6
19  COC(=O)Nc1nc2cc(Oc3ccc(NC(=O)Nc4cc(C(F)(F)F)ccc4F)cn3)ccc2[nH]1.Cl.Cl              10
20  O=C(NC1CCN(c2ccnc(Nc3ccc(F)cc3)n2)C1)c1cc2ccccc2s1 (centres unmarked)               0
21  O=C(Nc1cccc(-c2nn3ccccc3c2-c2ccnc(Nc3cccc(F)c3)n2)c1)c1c(F)ccc(F)c1Cl               0
22  O=C(O)C(F)(F)F.O=C(O)C(F)(F)F.O=c1[nH]ccc2nc(N[C@@H]3CCCNC3)nc(Nc3ccc(S(=O)(=O)N4CCOCC4)cc3)c12            98.6
23  COc1cc(Nc2nccc(N3CCC(NC(=O)c4cc5ccccc5s4)C3)n2)cc(OC)c1OC (centres unmarked)              13
24  Cl.c1ccc(-c2ccc3c(Nc4ccc5[nH]ccc5c4)ccnc3c2)nc1              26
25  COC(=O)Nc1nc2ccc(Oc3ccc(NC(=O)Nc4cc(C(F)(F)F)ccc4F)cc3)cc2n1C.Cl              11
26  COCCOCCOc1cc2ncc3c4ccc(C#N)cc4[nH]c3c2cc1OC               0
27  c1ccc(Oc2ccc(Nc3ccnc4cc(-c5ccc(CNCCN6CCOCC6)o5)ccc34)cc2)nc1              14
28  Cn1cc(-c2ccc3c(c2)CCN3C(=O)Cc2cccc(F)c2)c2c(N)ncnc21               3
29  Cl.c1ccc(-c2ccc3c(Nc4ccc5[nH]ncc5c4)ccnc3c2)nc1               0
30  Cc1ccc(C(=O)Nc2ccc(Nc3ccnc4cc(-c5nccs5)ccc34)cc2O)cc1.Cl              12
31  CC(=O)N1CCN(c2ccc(Nc3nccc(-c4sc(C(C)C)nc4-c4cccc(NS(=O)(=O)c5cccc(Cl)c5)c4)n3)cn2)CC1               0
